# System: MDA-N
# test_details: NCI tumour cell line growth inhibition, 48 h
Active and inactive are the calls of the source. No stated cut-off is given here; in the data, active = GI50 up to about 1.1 µM and inactive = higher.
Select the matching outcome among yes (1) for active, no (0) for inactive

Incoming: Dear all, I need the recorded test outcome for O=C(O)CC1NC(/C(=C/c2ccccc2O)NC(=O)c2ccccc2)OC1=O (stereo not given) , thank you.
Outgoing: no (0)

Incoming: Test call, this compound: CN1C(=O)C2(Cc3cn(C45CC67SSC(CO)(C(=O)N6C4Nc4ccccc45)N(C)C7=O)c4ccccc34)SSC1(CO)C(=O)N2C (stereo not given)
Outgoing: yes (1)

Incoming: Just curious, what result did `Cc1sc2nc3n(sc4nc5sc(C)c(C)c5c(=O)n43)c(=O)c2c1C` get here?
Outgoing: no (0)

Incoming: // return assay outcome for O=C1c2ccccc2-c2ccc(NC(=O)C3CCCCC3C(=O)O)cc21 (stereo not given)
Outgoing: no (0)

Incoming: Could you kindly confirm the outcome this assay logged for N#Cc1cccc(N2C(=O)C3C4C=CC(C3C2=O)C2C(=O)N(c3cccc(C#N)c3)C(=O)C42)c1 (stereo not given) ?
Outgoing: no (0)

Incoming: // return assay outcome for `O=C1c2ccccc2C(=O)c2c1ccc(C(=O)O)c2-c1ccc2ccccc2c1`
Outgoing: no (0)

Incoming: How did this test come out for O=C(Nc1ncc([N+](=O)[O-])s1)c1ccccc1O [TIZOXANIDE] ?
Outgoing: no (0)

Incoming: Could you check what this test reported for Cc1ccc(C2(N3CCCC3)OC(C)(C)c3cccc4cccc2c34)cc1 (stereo not given) ?
Outgoing: no (0)

Incoming: Could you please tell me the result logged for `CCOC(=O)/C=C/[C@H](O[Si](c1ccccc1)(c1ccccc1)c1ccccc1)C(C)(C)C` in this assay?
Outgoing: no (0)

Incoming: Write down the call the test reported for this compound. Item: `CCOc1nc(-c2ccccc2)cc(-c2ccc(N3CCOCC3)cc2)c1C#N`
Outgoing: no (0)

Incoming: Name the outcome recorded for `O=C1c2cccnc2C(=O)c2c1nc1ccccc1c2-c1cncc(-c2c3c(nc4ccccc24)C(=O)c2cccnc2C3=O)c1` in the assay.
Outgoing: yes (1)

Incoming: Hey, what did the test say about N#CC(c1nc2ccccc2s1)c1nc(Cl)ncc1Br (stereo not given) ?
Outgoing: no (0)

Incoming: Please share the test call associated with `Cc1ccc2c(c1)SSSSS2` .
Outgoing: no (0)

Incoming: GET /call?item= `C/C(=N\Nc1nc2ccccc2n1C)c1cc2ccccc2cn1` returns the recorded outcome of this test.
Outgoing: yes (1)

Incoming: Could you kindly confirm the outcome this assay logged for `COC(=O)/C=C\n1ncc(=O)[nH]c1=O` ?
Outgoing: no (0)

Incoming: Query: recorded result category for `Clc1ccc(OCc2nnc(CCCCCCCCc3nnc(COc4ccc(Cl)cc4)n3Nc3ccccc3)n2Nc2ccccc2)cc1` in this test
Outgoing: no (0)

Incoming: State the result this test recorded for `C[C@H](CCC(=O)O)[C@H]1CC[C@H]2[C@@H]3CC[C@@H]4C[C@H](O)CC[C@]4(C)[C@H]3C[C@H](O)[C@]12C` .
Outgoing: no (0)

Incoming: How was `N#Cc1c(N)c2c(c(-c3ccccc3)c1-c1ccccc1)C(=O)N(O)C2=O` classified in this test?
Outgoing: no (0)

Incoming: So what was the verdict on `O=C(O)Cc1ccccc1` in this test?
Outgoing: no (0)

Incoming: Outcome? `CCOC(=O)c1csc(NC(=O)CN2CCN(c3ccccc3)CC2)n1`
Outgoing: no (0)

Recorded values, source ChEMBL document CHEMBL1201862.
